biological target: human Nectin-4 (protein used in the SPR affinity measurements) (human) (UniProt Q96NY8); assay: SPR, human IgG1
Sequence (Q96NY8 32-349 limits assumed): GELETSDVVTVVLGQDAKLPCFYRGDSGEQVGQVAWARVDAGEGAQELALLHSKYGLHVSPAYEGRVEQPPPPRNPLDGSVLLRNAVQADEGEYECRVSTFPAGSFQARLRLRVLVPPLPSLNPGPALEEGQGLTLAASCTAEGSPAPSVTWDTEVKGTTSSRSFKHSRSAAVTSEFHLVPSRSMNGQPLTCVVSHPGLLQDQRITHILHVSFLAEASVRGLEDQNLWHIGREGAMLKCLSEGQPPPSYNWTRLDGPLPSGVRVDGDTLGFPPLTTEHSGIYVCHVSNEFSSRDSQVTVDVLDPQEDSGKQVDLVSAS
ATTRIBUTE MEASURED: kon (M⁻¹ s⁻¹)
Reply with just the number (in M⁻¹ s⁻¹).

Reference set, count: 2
| BINDER | RESULT |
| --- | --- |
| H6L1 (antibody, human IgG1, V domains shown, human IgG1 isotype) VH: QVQLVQSGAEVKKPGASVKVSCKASGYIFTSYWMHWVKQRPGQGLEWIGEIDPSDSYTNYNQKFKGRVTMTLDKSTSTTYMELSSLRSEDTAVYYCARGYGNYGDYWGQGTLVTVSS VL: DVVMTQSPLSLPVTPGEPASISCRSSKSLLHSNGITYLYWYLQKPGQSPQLLIYQMSNLASGVPDRFSSSGSGTDFTLKISRVEAEDVGVYYCAQNLELPWTFGGGTKVEIK | 190000 |
| H7L2 (antibody, human IgG1, V domains shown, human IgG1 isotype) VH: QVQLVQSGAEVKKPGASVKVSCKASGYIFTSYWMHWVKQRPGQGLEWIGEIDPSDSYTNYNQKFKGRVTLTLDKSTSTTYMELSSLRSEDTAVYYCARGYGNYGDYWGQGTLVTVSS VL: DVVMTQSPLSNPVTPGEPASISCRSSKSLLHSNGITYLYWYLQKPGQSPQLLIYQMSNLASGVPDRFSSSGSGTDFTLKISRVEAEDVGVYYCAQNLELPWTFGGGTKVEIK | 160000 |

Turning now to a further record.
Q: Answer with the recorded kon of H3L0 (antibody, human IgG1, V domains shown, human IgG1 isotype) VH: QVQLVQSGAEVKKPGASVKVSCKASGYIFTSYWMHWVRQAPGQGLEWMGEIDPSDSYTNYNQKFKGRVTMTLDKSTSTTYMELSSLRSEDTAVYYCARGYGNYGDYWGQGTLVTVSS VL: DIVMTQSPLSLPVTPGEPASISCRSSKSLLHSNGITYLYWYLQKPGQSPQLLIYQMSNLASGVPDRFSGSGSGTDFTLKISRVEAEDVGVYYCAQNLELPWTFGGGTKVEIK only.
A: 110000
